The values you see were collected from patent US20190177431A1.

system.tested: T1, human TF on the cell surface of tumor cells (human, UniProt P13726 33-295)
T1 construct: whole, on cells; Endogenous TF on TF-positive human tumor cell lines; also called cell surface TF
experimental.protocol: flow cytometry on MDA-MB-231 cells, antibody at 10 µg/mL
Design: reference not given here
Task for the reader: assign each of the following binders its reported MFI.
Give bare numbers.

Example cases with answers are listed next.
TF-mAb-H32 (antibody, V domains shown, Humanized) VH: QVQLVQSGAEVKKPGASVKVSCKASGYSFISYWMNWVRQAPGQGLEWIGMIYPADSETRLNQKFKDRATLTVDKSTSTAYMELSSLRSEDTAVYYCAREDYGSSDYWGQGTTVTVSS VL: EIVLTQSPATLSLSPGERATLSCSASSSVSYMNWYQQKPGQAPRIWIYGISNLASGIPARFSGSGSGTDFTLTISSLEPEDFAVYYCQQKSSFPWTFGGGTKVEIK	3010
TF-mAb-H34 (antibody, V domains shown, Humanized) VH: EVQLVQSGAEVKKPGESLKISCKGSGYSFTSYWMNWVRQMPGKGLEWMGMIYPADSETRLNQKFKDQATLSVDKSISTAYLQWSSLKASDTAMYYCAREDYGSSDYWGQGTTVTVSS VL: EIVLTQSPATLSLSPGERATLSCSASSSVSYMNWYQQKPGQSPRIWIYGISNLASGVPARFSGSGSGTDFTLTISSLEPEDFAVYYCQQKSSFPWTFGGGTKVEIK	3270

Consider the record given below.
Entry TF-mAb-H43 (antibody, V domains shown, Humanized) VH: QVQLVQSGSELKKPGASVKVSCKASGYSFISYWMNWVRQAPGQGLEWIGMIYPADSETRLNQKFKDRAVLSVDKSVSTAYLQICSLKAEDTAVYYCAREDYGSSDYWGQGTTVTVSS VL: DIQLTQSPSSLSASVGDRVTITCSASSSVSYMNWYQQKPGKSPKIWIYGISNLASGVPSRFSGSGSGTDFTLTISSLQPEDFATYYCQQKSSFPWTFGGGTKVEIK ; MFI = 3300
